Entries and their pEC50 values follow.
- Test system: murine IDO (Mus musculus)
- Construct: expressed in transfected cells; host or cells: 293-T-REx cells (Invitrogen), doxycycline-inducible CMV-tet promoter
- Sequence (P28776 whole entry): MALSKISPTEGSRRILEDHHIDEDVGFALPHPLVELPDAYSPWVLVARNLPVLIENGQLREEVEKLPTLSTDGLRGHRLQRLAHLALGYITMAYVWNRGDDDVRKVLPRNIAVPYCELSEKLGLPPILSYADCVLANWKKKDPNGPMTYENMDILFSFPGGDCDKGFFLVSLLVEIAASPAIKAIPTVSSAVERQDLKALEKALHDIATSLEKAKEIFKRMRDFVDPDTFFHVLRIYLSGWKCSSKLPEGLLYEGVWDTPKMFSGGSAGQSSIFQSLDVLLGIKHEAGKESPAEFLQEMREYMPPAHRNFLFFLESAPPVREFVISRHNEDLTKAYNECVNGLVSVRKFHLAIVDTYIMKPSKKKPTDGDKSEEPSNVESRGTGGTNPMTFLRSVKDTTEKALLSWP
- Experiment description: Cell based IDO/kynurenine assay in 293-T-Rex cells expressing murine IDO
- Condition details: Table 15; cells expressing murine IDO; read-out: mIDO EC50
pEC50: −log10 of the molar value.

Below, each entry is followed by its recorded pEC50 result.
- Compound: "NOCc1ccc(F)cc1Cl [compound 1676, O-(2-chloro-4-fluorobenzyl)hydroxylamine]"
  pEC50: "4.00 to 5.00"
- Compound: "NOCc1ccccn1 [compound 1739, O-(pyridin-2-ylmethyl)hydroxylamine]"
  pEC50: "> 5.00"
- Compound: "NOCc1ccncc1 [compound 1737, O-(pyridin-4-ylmethyl)hydroxylamine]"
  pEC50: "> 5.00"
- Compound: "NOC(CCc1ccccc1)c1ccccc1 (stereo not shown) [compound 1924, O-(1,3-diphenylpropyl)hydroxylamine]"
  pEC50: "4.00 to 5.00"
- Compound: "NOCc1cccc(Nc2ccccc2)c1"
  pEC50: "> 5.00"

QUERY: Need pEC50 of NOCc1ccc2ncccc2c1 [compound 1741, O-(quinolin-6-ylmethyl)hydroxylamine] , thanks.
RESULT: > 5.00

QUERY: Find the recorded pEC50 belonging to NOCc1ccccc1-c1ccncc1 [compound 1889, O-(2-(pyridin-4-yl)benzyl)hydroxylamine] and report it.
RESULT: 3.00 to 4.00

QUERY: Fill in the blank: the reported pEC50 of NOCc1cc(Cl)cc(-c2ccc(Cl)cc2)c1 is ____.
RESULT: 4.00 to 5.00

QUERY: Given the compound COC(=O)CCC(ON)c1ccccc1 (stereo not shown) [compound 1880, methyl 4-(aminooxy)-4-phenylbutanoate] , what is its reported pEC50?
RESULT: 3.00 to 4.00

QUERY: Any idea what its pEC50 is? The compound is NOC(CC1CCCCC1)c1ccccc1 (stereo not shown)
RESULT: 4.00 to 5.00
